Reported log10 IC50 values follow for various molecules
# System: Plasmodium falciparum K1 (chloroquine-resistant) parasite strain
# method: In vitro antimalarial assay (p-LDH, 72 h) against Plasmodium falciparum K1 strain
# Format: cell-based
# settings: Plasmodium falciparum, K1; Table S1; synthesized compounds and positive controls; read-out: IC50 Antimalarial activity (K1 strain)
# Experimental: Briefly, the P. falciparum K1 strain was cultured in human erythrocytes in RPMI medium supplemented with 10% human plasma at 37 °C, under 93% N2, 4% CO2, and 3% O2. Asynchronous parasites (2% hematocrit and 0.5 or 1% parasitaemia) were seeded in a 96-well microtiter plate and serially diluted test compounds were added. […] After 72-hours incubation, parasite lactate dehydrogenase (p-LDH) was assayed using a slight modification of the procedure reported by Makler et al.[31] and Vivas et al.[32]. […]
The common logarithm of IC50 in µg/mL is what is listed.

Completed entries (count: 2):
[
  {
    "molecule": "C[C@@H]1CC[C@H]2[C@@H](C)C(=O)O[C@@H]3O[C@@]4(C)CC[C@@H]1[C@]32OO4 [artemisinin, reference compound]",
    "log10 IC50": -2.24
  },
  {
    "molecule": "COCc1cc(O)c(O)c(=O)c(O)c1 [Compound 43, 4-Methoxymethyl-6,7-dihydroxytropolone]",
    "log10 IC50": -1.36
  }
]

Missing value: log10 IC50, Plasmodium falciparum K1 (chloroquine-resistant) parasite strain, entry O=C(O)c1ccc(O)c(=O)c(O)c1 . Fill in? -0.41

Input O=C(O)c1cc(O)c(O)c(=O)c(O)c1 -2.06

Input COCc1ccc(O)c(=O)c(O)c1 [Compound 38, 4-Methoxymethyl-7-hydroxytropolone] -0.42

###

# Tested on: Plasmodium falciparum K1 (chloroquine-resistant) parasite strain
# method: In vitro antimalarial assay (p-LDH, 72 h) against Plasmodium falciparum K1 strain
# Assay type: cell-based
# settings: Plasmodium falciparum, K1; synthesized derivatives, in vitro; read-out: IC50 Antimalarial activity (K1 strain)
property.measured: pIC50
pIC50 here: minus log base 10 of the concentration, concentration in moles per litre.

[
  {
    "compound": "O=c1c(O)cc(CO)cc(O)c1O [Compound 42, 4-Hydroxymethyl-6,7-dihydroxytropolone]",
    "pIC50": 6.68
  },
  {
    "compound": "COCc1ccc(O)c(=O)c(O)c1 [Compound 38, 4-Methoxymethyl-7-hydroxytropolone]",
    "pIC50": 5.68
  },
  {
    "compound": "[N-]=[N+]=NCc1cc(O)c(O)c(=O)c(O)c1 [Compound 44, 4-Azidomethyl-6,7-dihydroxytropolone]",
    "pIC50": 6.34
  },
  {
    "compound": "COc1cc(C(=O)O)cc(O)c(=O)c1O",
    "pIC50": 6.47
  }
]

// query pIC50 value for entry COCc1cc(O)c(O)c(=O)c(O)c1 [Compound 43, 4-Methoxymethyl-6,7-dihydroxytropolone] 6.66

Input O=C(O)c1ccc(O)c(=O)c(O)c1 5.67

Input O=c1c(O)ccc(CO)cc1O [Compound 37, 4-Hydroxymethyl-7-hydroxytropolone] 5.36

Input O=C(O)c1cc(O)c(O)c(=O)c(O)c1 7.36

###

# method: Cytotoxic assay against MRC-5 cells
# settings: human, MRC-5 cells (fetal lung fibroblasts), IC50 cytotoxicity (MRC-5)
Reported IC50 values follow for various compounds
Dear colleague, please send the value followed by its unit.

[
  {
    "compound": "COCc1ccc(O)c(=O)c(O)c1 [Compound 38, 4-Methoxymethyl-7-hydroxytropolone]",
    "property.measured": "IC50",
    "meas.value": "1.32 nM"
  }
]

// query IC50 value for entry O=c1c(O)ccc(CO)cc1O [Compound 37, 4-Hydroxymethyl-7-hydroxytropolone] 3.39 nM

###

# Test system: Plasmodium falciparum K1 (chloroquine-resistant) parasite strain
# method: In vitro antimalarial assay (p-LDH, 72 h) against Plasmodium falciparum K1 strain
# Type: cell-based
# settings: Table S1; synthesized compounds and positive controls
Hi! Could you tag entries with Selectivity index MRC-5/K1 below 0.04 as Condition met, and those at or above as Condition not met? Much appreciated.

Example entries and their recorded answers appear below.
[
  {
    "compound": "O=c1c(O)ccc(CO)cc1O [Compound 37, 4-Hydroxymethyl-7-hydroxytropolone]",
    "label.class": "Condition met"
  },
  {
    "compound": "O=C(O)c1ccc(O)c(=O)c(O)c1",
    "label.class": "Condition not met"
  },
  {
    "compound": "O=C(O)c1cc(O)c(O)c(=O)c(O)c1",
    "label.class": "Condition not met"
  },
  {
    "compound": "COCc1ccc(O)c(=O)c(O)c1 [Compound 38, 4-Methoxymethyl-7-hydroxytropolone]",
    "label.class": "Condition met"
  }
]

Please check: Selectivity index MRC-5/K1 for C[C@@H]1CC[C@H]2[C@@H](C)C(=O)O[C@@H]3O[C@@]4(C)CC[C@@H]1[C@]32OO4 [artemisinin, reference compound] , strictly under 0.04 or not? Condition not met

Input COc1cc(C(=O)O)cc(O)c(=O)c1O Condition not met

Input O=c1c(O)cc(CO)cc(O)c1O [Compound 42, 4-Hydroxymethyl-6,7-dihydroxytropolone] Condition not met

###

# method: Cytotoxic assay against MRC-5 cells
# settings: human, MRC-5 cells (fetal lung fibroblasts), IC50 Cytotoxicity (MRC-5), synthesized derivatives
property.measured: IC50 (nM)
# number only, unit nM dropped from output

[
  {
    "compound": "COCc1ccc(O)c(=O)c(O)c1 [Compound 38, 4-Methoxymethyl-7-hydroxytropolone]",
    "unit.string": "nM",
    "IC50": 1.3
  },
  {
    "compound": "[N-]=[N+]=NCc1cc(O)c(O)c(=O)c(O)c1 [Compound 44, 4-Azidomethyl-6,7-dihydroxytropolone]",
    "unit.string": "nM",
    "IC50": 3.5
  },
  {
    "compound": "O=c1c(O)cc(CO)cc(O)c1O [Compound 42, 4-Hydroxymethyl-6,7-dihydroxytropolone]",
    "unit.string": "nM",
    "IC50": 24
  },
  {
    "compound": "O=C(O)c1ccc(O)c(=O)c(O)c1",
    "unit.string": "nM",
    "IC50": 102000
  }
]

// query IC50 value for entry O=c1c(O)ccc(CO)cc1O [Compound 37, 4-Hydroxymethyl-7-hydroxytropolone] 3.4

Input COCc1cc(O)c(O)c(=O)c(O)c1 [Compound 43, 4-Methoxymethyl-6,7-dihydroxytropolone] 91

Input O=C(O)c1cc(O)c(O)c(=O)c(O)c1 289000

Input COc1cc(C(=O)O)cc(O)c(=O)c1O 55800

###

# method: in vitro
# settings: human, IC50 Cytotoxicity (MRC-5)
# Protocol: Measurement of cytotoxicity against human fetal lung fibroblast MRC-5 cells was carried out as described previously. 3. […] 3-2. Cytotoxic assay against MRC-5 cells Measurement of cytotoxicity against human fetal lung fibroblast MRC-5 cells was carried out as described previously4). […] 4) K. Otoguro, H. Ui, A. Ishiyama, N. Arai, M. Kobayashi, Y. Takahashi, R. Masuma, K. Shiomi, H. Yamada, S. Ōmura, J. Antibiot.
property.measured: IC50 (µg/mL)
# number only, unit µg/mL dropped from output

// query IC50 value for entry C[C@@H]1CC[C@H]2[C@@H](C)C(=O)O[C@@H]3O[C@@]4(C)CC[C@@H]1[C@]32OO4 [artemisinin, reference compound] 45.2

###

# method: Cytotoxic assay against MRC-5 cells
# settings: human
property.measured: IC50 (µg/mL)
# number only, unit µg/mL dropped from output

// query IC50 value for entry CCN(CC)CCCC(C)Nc1ccnc2cc(Cl)ccc12 (stereo not shown) [chloroquine, reference compound] 18.6

###

# method: Cytotoxic assay against MRC-5 cells
# settings: human, MRC-5 cells (fetal lung fibroblasts), IC50 Cytotoxicity (MRC-5), Table S1; synthesized compounds and positive controls
property.measured: log10(IC50) (log10 of the value in ng/mL)
The common logarithm of IC50 in ng/mL is what is listed.

Completed entries (count: 7):
[
  {
    "compound": "COCc1ccc(O)c(=O)c(O)c1 [Compound 38, 4-Methoxymethyl-7-hydroxytropolone]",
    "property.measured": "log10(IC50)",
    "meas.value": -0.62
  },
  {
    "compound": "O=C(O)c1ccc(O)c(=O)c(O)c1",
    "property.measured": "log10(IC50)",
    "meas.value": 4.27
  },
  {
    "compound": "O=C(O)c1cc(O)c(O)c(=O)c(O)c1",
    "property.measured": "log10(IC50)",
    "meas.value": 3.62
  },
  {
    "compound": "COc1cc(C(=O)O)cc(O)c(=O)c1O",
    "property.measured": "log10(IC50)",
    "meas.value": 4.07
  },
  {
    "compound": "O=c1c(O)ccc(CO)cc1O [Compound 37, 4-Hydroxymethyl-7-hydroxytropolone]",
    "property.measured": "log10(IC50)",
    "meas.value": -0.24
  },
  {
    "compound": "O=c1c(O)cc(CO)cc(O)c1O [Compound 42, 4-Hydroxymethyl-6,7-dihydroxytropolone]",
    "property.measured": "log10(IC50)",
    "meas.value": 0.64
  },
  {
    "compound": "[N-]=[N+]=NCc1cc(O)c(O)c(=O)c(O)c1 [Compound 44, 4-Azidomethyl-6,7-dihydroxytropolone]",
    "property.measured": "log10(IC50)",
    "meas.value": -0.14
  }
]

// query log10(IC50) value for entry COCc1cc(O)c(O)c(=O)c(O)c1 [Compound 43, 4-Methoxymethyl-6,7-dihydroxytropolone] 0.26
